test: physchem; type: physicochemical; details: aqueous with cosolvent or surfactant or cyclodextrin
resultType: solubility (mg/mL)
Response body: numeric value in mg/mL, unit text excluded.

QUERY: May I ask what solubility has been recorded for O=[N+]([O-])c1cncn1CCN1CCOCC1 [Nimorazole, nimorazole] ?
RESULT: 100
